These measurements were taken from PubChem BioAssay (NCI).

System: UO-31 renal
assay: NCI tumour cell line growth inhibition, 48 h
quantity_measured: GI50

Give GI50 for all compounds that follow.
1. Cc1cc2cc(Oc3ccnc(Nc4cccc(CS(=O)(=O)NCCN(C)C)c4)n3)ccc2[nH]1
2. COc1cc2c(cc1O)CCN[C@@]21CS[C@H]2c3c(OC(C)=O)c(C)c4c(c3C(COC1=O)N1C2C2c3c(cc(C)c(OC)c3O)CC([C@@H]1O)N2C)OCO4 (stereo partly drawn)
3. COc1cccc2c1C(=O)c1c(O)c3c(c(O)c1C2=O)C[C@@](O)(C(=O)COC(=O)c1cccnc1)C[C@@H]3OC1CC(N)C(O)C(C)O1 (stereo partly drawn)
4. C=C(C)[C@@H]1CC[C@]2(c3ncc(C)o3)CC[C@]3(C)[C@H](CC[C@@H]4[C@@](C)(CCC#N)[C@H](C(=C)C)CC[C@]43C)[C@@H]12
5. COc1cccc(NC(=O)c2ccc(C(F)(F)F)nc2Nc2ccc(Cl)cc2C)c1
6. COc1ccccc1NC(=O)N/C(N)=N/c1nc2ccccc2s1

Result:
3140 nM
< 0.001 nM
460 nM
2400 nM
1450 nM
389 nM

Batch of 2 compounds: report GI50 for each.
1. CC(=O)c1ccc(NCn2nc(-c3ccccc3O)oc2=S)cc1
2. COc1cc2c(c(OC)c1OC)C(=O)c1c-2n(CCCN)c(=O)c2cc([N+](=O)[O-])ccc12

Result:
1. > 100000 nM
2. 1890 nM

* * *

System: MDA-N
assay: NCI tumour cell line growth inhibition, 48 h
quantity_measured: TGI

Take a look at these entries with their results.
compound	assay_target	measurement
Nc1nonc1-c1noc(-c2nonc2N)[n+]1[O-]	MDA-N	> 100 µM
CCOc1ccccc1N=NC1C(=O)N(C(=O)CC(=O)Nc2ccccc2Cl)N=C1C (stereo unspecified)	MDA-N	> 100 µM
COc1cccc2c1[C@H](OC)[C@]13O[C@@]1(C2=O)[C@H](O)[C@H](C)[C@@](O)(C(=O)[C@@H]1O[C@H]1C)[C@@H]3O	MDA-N	0.768 µM
Nc1nc(N)c2ncn(Cc3c(Cl)cccc3Cl)c2n1	MDA-N	> 100 µM
CC1(C)[C@@H]2C[C@H]1C(Cc1ccccc1C[C@H]1c3cc(-c4ccccn4)ncc3[C@H]3C[C@@H]1C3(C)C)c1cc(-c3ccccn3)ncc12 (stereo partly specified)	MDA-N	> 100 µM
COc1cccc(NC(=O)c2c(SC)n[nH]c2N)c1	MDA-N	> 100 µM
CCN(CC)CC1CCCCN1CC(=O)N1c2ccc(Br)cc2C(=O)Nc2cccnc21 (stereo unspecified)	MDA-N	> 100 µM
c1ccc(N=C2SC(c3ccccc3)CN2C23CC4CC(CC(C4)C2)C3)cc1 (stereo unspecified)	MDA-N	> 100 µM

// for each compound below, give its TGI
1. Clc1ccc(OCc2nnc(CCCCCCCCc3nnc(COc4ccc(Cl)cc4)o3)o2)cc1
2. C=C(Cl)C(Br)(CCl)CCC(Cl)C(C)C (stereo unspecified) (tested in a mixture with another compound)
3. O=C(CN1CCOCC1)NC1=Nc2ncccc2C(=O)NN1
4. CCOC(=O)c1c(SCC#N)n(-c2ccccc2)c(=S)n(-c2ccccc2)c1=O

Result:
["> 100 µM", "3.45 µM", "> 10 µM", "> 100 µM"]

* * *

System: SF-539 CNS
assay: NCI tumour cell line growth inhibition, 48 h
quantity_measured: GI50

> print(dat)
                           smiles.structure  assay.target  quantity.measured  measurement
1       CC(C)NCCCNC1=C(Cl)C(=O)c2ccccc2C1=O    SF-539 CNS               GI50      16.5 µM
2        CCN(CCc1ccc(F)cc1)c1ccc(CO)c(Cl)c1    SF-539 CNS               GI50      15.7 µM
3                CCOc1ccccc1N=C(NC(=O)CC)SC    SF-539 CNS               GI50     > 100 µM
4  O=C1c2ccccc2C(=O)c2c1c(NCCNCCO)c1cc[nH]c1c2NCCNCCO    SF-539 CNS               GI50      1.25 µM
5           CCCCCCCCOC(=O)c1cc(O)c(O)c(O)c1    SF-539 CNS               GI50      2.52 µM

Let's switch to this compound now.
Ask: Please indicate recorded GI50 of CN1CCN(c2ccc(NC3=C(Cl)C(=O)c4ncccc4C3=O)cc2C(F)(F)F)CC1 measured with SF-539 CNS.
Result: 1.74 µM
